Measured values drawn from patent US20240067734A1 for this set.

- target_of_assay: T1, di cyNKG2D ECD Fc avi (cynomolgus, biotinylated at the avi-tag)
- T1 construct: Dimeric fusion of cynomolgus NKG2D ECD to the C-terminus of an avi-tagged human IgG1 Fc; also called recombinant cynomolgus NKG2D
- protocol_description: ELISA; biotinylated antigen on streptavidin plate
The binders listed here are annotated with their pEC50.
Convention used: pEC50 is expressed as -log10 of the molar concentration.

[[record]]
binder = "anti-NKG2D antibody clone 395 (antibody, V domains shown, From transgenic rabbits; rabbit VH, human VL) VH: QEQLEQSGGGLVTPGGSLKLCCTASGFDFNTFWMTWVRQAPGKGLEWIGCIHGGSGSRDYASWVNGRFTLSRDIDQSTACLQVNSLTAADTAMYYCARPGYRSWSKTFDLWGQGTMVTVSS VL: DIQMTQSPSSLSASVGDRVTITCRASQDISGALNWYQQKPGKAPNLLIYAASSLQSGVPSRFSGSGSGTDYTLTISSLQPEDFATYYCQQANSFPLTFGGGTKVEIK"
result_type = "pEC50"
experimental_result = 9.22


(Q) Dear colleague, I am looking for the recorded pEC50 of the following binder: anti-NKG2D antibody clone 001 (antibody, V domains shown, From transgenic rabbits) VH: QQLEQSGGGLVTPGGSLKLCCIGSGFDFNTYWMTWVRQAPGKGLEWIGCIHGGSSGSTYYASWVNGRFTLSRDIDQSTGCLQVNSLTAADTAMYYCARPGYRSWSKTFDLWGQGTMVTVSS VL: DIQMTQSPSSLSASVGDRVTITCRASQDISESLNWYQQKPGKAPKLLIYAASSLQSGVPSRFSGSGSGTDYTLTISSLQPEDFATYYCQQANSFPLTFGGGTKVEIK
(A) 9.52

(Q) Dear colleague, I am looking for the recorded pEC50 of the following binder: anti-NKG2D antibody clone 230 (antibody, V domains shown, From transgenic rabbits) VH: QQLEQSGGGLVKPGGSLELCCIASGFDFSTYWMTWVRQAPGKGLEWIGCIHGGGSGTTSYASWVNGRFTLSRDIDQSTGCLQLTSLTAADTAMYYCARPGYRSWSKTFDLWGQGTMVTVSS VL: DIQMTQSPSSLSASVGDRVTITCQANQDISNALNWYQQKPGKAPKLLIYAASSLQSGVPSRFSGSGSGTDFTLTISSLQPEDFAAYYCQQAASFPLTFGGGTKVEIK
(A) 8.89
